Assay name: Body weight and food intake in C57BL/6 mice, fusion protein conjugates, 30 nmol/kg daily 10 days
Type: in vivo
I'd appreciate it if you could supply Cumulative food intake reduction at 30 nmol/kg (% reduction compared to vehicle)(Day11) values for the items below.
Enter your answer as a number in %; do not include the unit.

In: Write down Cumulative food intake reduction at 30 nmol/kg (% reduction compared to vehicle)(Day11) measured for item MLC104: fusion polypeptide SEQ ID NO: 391 conjugated with Moiety A at 76K of Linker (conjugate, Moiety A conjugated at linker Lys76) HGEGTFTSDVSSYLEEQAAREFIAWLVRGGGGQEPGAQPGQEPGAQPGQEPGAQPGQEPGAQPGQEPGAQPGQEPGAQPGAQPGAQPGAQPGAQPGAQPGAQPGAQKGAQPARQGDHCPLGPGRCCRLHTVRASLEDLGWADWVLSPREVQVTMCIGACPSQFRAANLHAQIKTSLHRLRPDTVPAPCCVPASYNPMVLIQRTDTGVSLQTYDDLLARDCHCI
Out: 29.4

In: Write down Cumulative food intake reduction at 30 nmol/kg (% reduction compared to vehicle)(Day11) measured for item MLC080: fusion polypeptide SEQ ID NO: 374 conjugated with Moiety B at 35C of Linker (conjugate, Moiety B conjugated at linker C35) HGEGTFTSDVSSYLEEQAAKEFIAWLVRGGGGQEPGAQPGQEPGAQPGQEPGAQPGQEPGAQPGQCPGAQPGQEPGAQPGQEPGAQPGAQPGAQPGAQPGAQPGAQPGAQPARQGDHCPLGPGRCCRLHTVRASLEDLGWADWVLSPREVQVTMCIGACPSQFRAANLHAQIKTSLHRLKPDTVPAPCCVPASYNPMVLIQKTDTGVSLQTYDDLLAKDCHCI
Out: 33.2

In: Write down Cumulative food intake reduction at 30 nmol/kg (% reduction compared to vehicle)(Day11) measured for item MLC004: fusion polypeptide SEQ ID NO: 251 conjugated with Moiety A at 26K of GLP-1 (conjugate, Moiety A conjugated at K26) HGEGTFTSDVSSYLEEQAAKEFIAWLVRGGGGQEPGAQPGQEPGAQPGQEPGAQPGQEPGAQPGQEPGAQPGQEPGAQPGAQPGAQPGAQPGAQPGAQPGAQPGAQPGAQPARQGDHCPLGPGRCCRLHTVRASLEDLGWADWVLSPREVQVTMCIGACPSQFRAANLHAQIKTSLHRLRPDTVPAPCCVPASYNPMVLIQRTDTGVSLQTYDDLLARDCHCI
Out: 35.0

In: Write down Cumulative food intake reduction at 30 nmol/kg (% reduction compared to vehicle)(Day11) measured for item MLC089: fusion polypeptide SEQ ID NO: 379 conjugated with Moiety B at 39C of Linker (conjugate, Moiety B conjugated at linker Cys39) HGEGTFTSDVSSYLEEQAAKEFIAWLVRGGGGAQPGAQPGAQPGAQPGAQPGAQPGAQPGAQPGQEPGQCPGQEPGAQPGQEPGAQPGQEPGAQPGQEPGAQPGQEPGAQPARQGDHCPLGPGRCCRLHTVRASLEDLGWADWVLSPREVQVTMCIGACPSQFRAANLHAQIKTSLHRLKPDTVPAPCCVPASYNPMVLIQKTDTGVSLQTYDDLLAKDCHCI
Out: 29.9
